# Measurement Target: hGSK3b (Homo sapiens, UniProt P49841)
# Construct: purchased Cerep (LANCE kinase assay platform, contract assay)
# Sequence (P49841 whole entry): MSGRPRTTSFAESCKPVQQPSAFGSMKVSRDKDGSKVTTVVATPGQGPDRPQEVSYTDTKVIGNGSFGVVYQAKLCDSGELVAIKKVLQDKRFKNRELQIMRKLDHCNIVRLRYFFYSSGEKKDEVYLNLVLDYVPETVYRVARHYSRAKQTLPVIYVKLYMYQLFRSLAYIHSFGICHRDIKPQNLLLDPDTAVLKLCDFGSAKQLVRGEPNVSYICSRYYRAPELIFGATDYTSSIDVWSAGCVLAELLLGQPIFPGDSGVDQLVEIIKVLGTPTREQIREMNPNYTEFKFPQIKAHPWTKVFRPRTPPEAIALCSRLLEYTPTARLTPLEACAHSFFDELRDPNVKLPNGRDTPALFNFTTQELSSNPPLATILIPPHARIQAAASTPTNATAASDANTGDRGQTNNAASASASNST
# Assay Text: Cerep LANCE kinase assay hGSK3b (S1 assay 34)
# Type: biochemical
# Test Context: assay number 34
Please respond with reported hGSK3b LANCE IC50/EC50 for every item in the list.

# batch size: 8; output hGSK3b LANCE IC50/EC50 per entry
1. Cc1nc(N)nc(N)c1-c1ccc(Cl)c(Cl)c1
2. CCCCC1C(=O)N(c2ccccc2)N(c2ccc(O)cc2)C1=O (centres unmarked)
3. CC(C)(C)C1CCC(CC2=C(O)c3ccccc3C(=O)C2=O)CC1 (centres unmarked)
4. CC(=O)Oc1ccc(C2(c3ccc(OC(C)=O)cc3)Oc3ccccc3NC2=O)cc1
5. CCCCCCNC(=O)n1cc(F)c(=O)[nH]c1=O
6. Cc1ccc([N+](=O)[O-])[c]2c1[O][Hg]2
7. Cc1nc2ccc(CN(C)c3ccc(C(=O)N[C@@H](CCC(=O)O)C(=O)O)s3)cc2c(=O)[nH]1
8. Cc1cc(=O)c2c(O)c3c(O)cc(=O)c4c3c3c(cc(O)c1c23)C(C)(C)C=4O

Reply text:
1: > 20 µM; 2: > 20 µM; 3: > 20 µM; 4: > 20 µM; 5: > 20 µM; 6: 8.37 µM; 7: 3.99 µM; 8: 6.9 µM
